The values you see were collected from PubChem BioAssay AID686979.

assay_info: qHTS for Inhibitors of human tyrosyl-DNA phosphodiesterase 1 (TDP1): qHTS in cells in presence of CPT; note: nearly all actives have a fitted effect of over 55% in size
experimental_parameters: chicken DT40 Tdp1-/-;hTDP1 cells + 20 nM CPT, ATP luminescence, 48 h; series mostly up to 46.2 µM
Out of some 420,000 compounds screened, about 50,000 (12%) were called active. Roughly 26% stayed inconclusive and do not appear here. Calls come from the whole dose curve; as a rule, active = well fitted inhibition curve with a large enough effect; inconclusive = small, poorly fitted or top-dose-only effect; inactive = flat fitted curve, though single readings scatter. What follows is part of a selection rich in actives, with near analogues and random picks from the rest.
Write down one outcome, taken from active, inactive

Query string: Field: outcome | Entry: O=S1(=O)CCC(NC(=S)SCc2ccccc2Br)C1 (stereo not drawn)
Result string: active

Query string: Field: outcome | Entry: COc1ccc(CC(NC(C)=O)C(=O)NC2CCN(C(=O)c3ccc(Cl)cc3)CC2)cc1 (stereo not drawn)
Result string: inactive

Query string: Field: outcome | Entry: CC(C)c1ccc(NC(=O)C2CCN(c3nc(-c4ccc(C(C)C)cc4)no3)CC2)cc1
Result string: active

###

assay_info: qHTS for Inhibitors of human tyrosyl-DNA phosphodiesterase 1 (TDP1): qHTS in cells in presence of CPT; note: nearly all actives have a fitted effect of over 55% in size
experimental_parameters: chicken DT40 Tdp1-/-;hTDP1 cells + 20 nM CPT, ATP luminescence, 48 h; series mostly up to 46.2 µM
The whole screen tested about 420,000 compounds, of which about 50,000 (12%) were called active. Not shown: some 26% with an inconclusive outcome. Calls come from the whole dose curve; as a rule, active = well fitted inhibition curve with a large enough effect; inconclusive = small, poorly fitted or top-dose-only effect; inactive = flat fitted curve, though single readings scatter. The entries come from a sample that favours actives as a whole.
Write down one outcome, taken from active, inactive

Before answering, review these 2 worked examples.
COc1ccc(NC(=O)CC2SC(N3CCCCC3)=NC2=O)cc1OC (centres undefined) = inactive
CN1CCN(c2ccc(S(=O)(=O)N3CCCCC3)cc2NC(=O)Cc2ccccc2F)CC1 = inactive

Query string: Field: outcome | Entry: COc1ccc(C(=O)CSc2nccc(=O)[nH]2)cc1
Result string: inactive

Query string: Field: outcome | Entry: Cc1ccc2c(c1)C1CN(C)CCC1N2C(=O)c1ccccc1NS(=O)(=O)c1ccc(F)cc1C (centres undefined)
Result string: inactive

Query string: Field: outcome | Entry: C[C@H](NC(=O)c1ccccc1Cl)C(=O)OCCOc1cccc(Cl)c1
Result string: inactive

###

assay_info: qHTS for Inhibitors of human tyrosyl-DNA phosphodiesterase 1 (TDP1): qHTS in cells in presence of CPT; note: nearly all actives have a fitted effect of over 55% in size; note: potency is the fitted concentration of half-maximal effect
experimental_parameters: chicken DT40 Tdp1-/-;hTDP1 cells + 20 nM CPT, ATP luminescence, 48 h; series mostly up to 46.2 µM
Out of some 420,000 compounds screened, about 50,000 (12%) were called active. Roughly 26% stayed inconclusive and do not appear here. This excerpt belongs to a sample that is enriched for actives.
readout_type: Potency

COc1ccc(S(=O)(=O)NC(=O)C2(C)CCN2C(=O)COc2ccc(Cl)cc2)cc1 (centres undefined) = inactive
CC1CCCCC1NC(=O)/C(C#N)=C/C=C/c1ccccc1[N+](=O)[O-] (centres undefined) = 10.3 µM (active)
Cc1cccc(NC(=O)C2CCCN2S(=O)(=O)c2cccc3nsnc23)c1C (centres undefined) = inactive
COC(=O)Cc1c(O)ccn(Cc2cccc(C(F)(F)F)c2)c1=O = inactive
CC1(C)C[C@H]2C3=CCC4[C@@]5(C)CC[C@H](O)[C@](C)(CO)C5CC[C@@]4(C)[C@]3(C)C[C@@H](O)[C@@]2(CO)[C@@H](O)[C@@H]1O (some centres undefined) = inactive
COCCNc1nc(-n2nc(C)cc2C)nc2sc3c(c12)CCCC3 = 3.66 µM (active)

Query string: Quick one: Potency for CCN1CCN(C(=O)N[C@@H](C(=O)N[C@@H]2C(=O)N3C(C(=O)O)=C(CSc4nnnn4C)CS[C@H]23)c2ccc(O)cc2)C(=O)C1=O ?
Result string: inactive

Query string: Quick one: Potency for CC(=O)NC(=S)Nc1ccc(NC(=S)NC(=O)c2ccc([N+](=O)[O-])cc2)cc1 ?
Result string: inactive

Query string: Quick one: Potency for CCOC(=O)CSc1nc2sc3c(c2c(=O)[nH]1)CC(C)(C)OC3 ?
Result string: inactive

###

assay_info: qHTS for Inhibitors of human tyrosyl-DNA phosphodiesterase 1 (TDP1): qHTS in cells in presence of CPT; note: nearly all actives have a fitted effect of over 55% in size
experimental_parameters: chicken DT40 Tdp1-/-;hTDP1 cells + 20 nM CPT, ATP luminescence, 48 h; series mostly up to 46.2 µM
Screen size: about 420,000 compounds; about 50,000 (12%) were called active. Roughly 26% stayed inconclusive and do not appear here. Calls follow the shape of the dose curve; as a rule, active = well fitted inhibition curve with a large enough effect; inconclusive = small, poorly fitted or top-dose-only effect; inactive = flat fitted curve, though single readings scatter. For the sample, actives were picked, then their nearest neighbours and some compounds at random.
Write down one outcome, taken from 1 (active), 0 (inactive)

COc1cc(=O)[nH]c(=O)n1C(=O)Cc1ccccc1 = 1
O=C(COC(=O)COc1ccccc1F)Nc1cccc(S(=O)(=O)N2CCCCC2)c1 = 0

Query string: Field: outcome | Entry: CCn1c(SCC(=O)NC2CC2)nnc1-c1ccccn1
Result string: 0

###

assay_info: qHTS for Inhibitors of human tyrosyl-DNA phosphodiesterase 1 (TDP1): qHTS in cells in presence of CPT; note: nearly all actives have a fitted effect of over 55% in size
experimental_parameters: chicken DT40 Tdp1-/-;hTDP1 cells + 20 nM CPT, ATP luminescence, 48 h; series mostly up to 46.2 µM
Hit rate of the full screen: of about 420,000 compounds, about 50,000 (12%) were called active. About 26% were inconclusive and are not listed. Calls follow the shape of the dose curve; as a rule, active = well fitted inhibition curve with a large enough effect; inconclusive = small, poorly fitted or top-dose-only effect; inactive = flat fitted curve, though single readings scatter. The list comes from a sample in which actives are over-represented; it also holds close analogues and randomly drawn compounds.
Write down one outcome, taken from label 1 (active), label 0 (inactive)

CCOc1ccc(C(=O)Nc2ccncc2)cc1 = label 1
O=C(O)CCCC(=O)N1N=C(c2ccco2)CC1c1ccco1 (stereo not drawn) = label 0

Query string: Field: outcome | Entry: CCOc1ccc(NC(=O)c2ccc(NC(=O)C3CCCO3)cc2)cc1 (stereo not drawn)
Result string: label 0

###

assay_info: qHTS for Inhibitors of human tyrosyl-DNA phosphodiesterase 1 (TDP1): qHTS in cells in presence of CPT; note: nearly all actives have a fitted effect of over 55% in size
experimental_parameters: chicken DT40 Tdp1-/-;hTDP1 cells + 20 nM CPT, ATP luminescence, 48 h; series mostly up to 46.2 µM
Screen size: about 420,000 compounds; about 50,000 (12%) were called active. Not shown: some 26% with an inconclusive outcome. Calls follow the shape of the dose curve; as a rule, active = well fitted inhibition curve with a large enough effect; inconclusive = small, poorly fitted or top-dose-only effect; inactive = flat fitted curve, though single readings scatter. Shown is part of a subset that was picked to be rich in actives. Where a SMILES comes first, the peptide text is derived from it. [ ]: non-standard residue; d: D form. ξ: configuration not given here. ξM = CSCCC(N)C(=O)O
Write down one outcome, taken from active, inactive

Before answering, review these 6 worked examples.
CN(C)C(=O)c1ccc(NC(=O)COC(=O)c2cc3c(s2)CCCCC3)cc1 = inactive
Cc1cc(-c2csc(N)n2)c(C)n1Cc1ccccc1 = inactive
CC(C)(C)c1ccc(NC(=O)COC(=O)CCc2nc3ccccc3c(=O)[nH]2)cc1 = inactive
N/C(=N\OC(=O)Nc1ccc(Cl)c(Cl)c1)c1ncc(C(F)(F)F)cc1Cl = inactive
COCCN(C(=O)c1ccco1)c1nnc(-c2ccc(OC)cc2)s1 = inactive
Cc1occc1C(=O)Nc1nnc(-c2ccncc2)s1 = inactive

Query string: Field: outcome | Entry: COc1cc(Cl)c(S(=O)(=O)N2CCN(Cc3ccc4c(c3)OCO4)CC2)cc1Cl
Result string: inactive

Query string: Field: outcome | Entry: C=CCNC(=S)NNC(=O)c1ccc(Br)o1
Result string: inactive

Query string: Field: outcome | Entry: Cc1cc(C)c(-c2csc(NC(=O)CCCc3nc4ccccc4c(=O)[nH]3)n2)c(C)c1
Result string: active

Query string: Field: outcome | Entry: Nc1ccc(-n2nncc2-c2ccco2)cc1
Result string: inactive

Query string: Field: outcome | Entry: CC1CCCCN1C(=O)Cn1c(=O)oc2cc(S(=O)(=O)N3CCCCC3)ccc21 (configuration not stated)
Result string: inactive

Query string: Field: outcome | Entry: O=C(CCN1C(=O)[C@H]2CC=CC[C@H]2C1=O)NCc1nc(-c2ccccc2)no1
Result string: inactive

Query string: Field: outcome | Entry: CC1CCCN(C(=O)Cn2c(=O)oc3cc(S(=O)(=O)N4CCCCC4C)ccc32)C1 (configuration not stated)
Result string: inactive

Query string: Field: outcome | Entry: S=C1SCN(CCN2CCOCC2)CN1Cc1ccccc1
Result string: active

Query string: Field: outcome | Entry: COC(=O)CNC(=O)C(CCSC)NC(C)=O (configuration not stated) (Ac-[ξM]-Gly-OMe)
Result string: inactive

Query string: Field: outcome | Entry: CC(=O)Nc1cccc(NC(=O)CSc2nccn2Cc2ccc3c(c2)OCO3)c1
Result string: inactive

###

assay_info: qHTS for Inhibitors of human tyrosyl-DNA phosphodiesterase 1 (TDP1): qHTS in cells in presence of CPT; note: nearly all actives have a fitted effect of over 55% in size
experimental_parameters: chicken DT40 Tdp1-/-;hTDP1 cells + 20 nM CPT, ATP luminescence, 48 h; series mostly up to 46.2 µM
In all, about 420,000 compounds went through this assay and about 50,000 (12%) were called active. About 26% were inconclusive and are not listed. Calls come from the whole dose curve; as a rule, active = well fitted inhibition curve with a large enough effect; inconclusive = small, poorly fitted or top-dose-only effect; inactive = flat fitted curve, though single readings scatter. This excerpt belongs to a sample that is enriched for actives.
Write down one outcome, taken from active, inactive

COc1ccc2c(c1OC)C(=O)N(c1ccc(O)cc1)C2 = inactive
Cc1cc(O)c(C(c2ccccc2)N2CCN(c3ccccc3F)CC2)c(=O)n1Cc1ccco1 (stereo unspecified) = inactive
O=C(NCC(=O)N1CCN(c2ccccc2O)CC1)c1ccc2ccccc2c1 = active

Query string: Field: outcome | Entry: Cn1cc(CCC(=O)NCc2ccc3c(c2)OCO3)c2ccccc21
Result string: inactive

Query string: Field: outcome | Entry: O=C(CNC(=O)c1ccc2ccccc2c1)Nc1ncccc1O
Result string: inactive

Query string: Field: outcome | Entry: Cn1c(SCC(=O)NC2CCCCC2)nnc1-c1cc2ccccc2o1
Result string: inactive
